Please respond with reported viability, T/C for every item in the list.
system: K98450-129-R-PDC multicell spheroids, viability; experiment: Anticancer human tumor K98450-129-R-PDC patient-derived colon adenocarcinoma cell line growth inhibition [PI3K]; details: second compound 0.0316 µM; first compound 0.0316 µM; active compounds read low;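 note: spheroids exposed to agents for seven days before read-out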
One number for each entry, in %.

Sample answers from the record:
- Compound: "C#Cc1c(F)ccc2cc(O)cc(-c3ncc4c(N5CC6CCC(C5)N6)nc(OCC56CCCN5CC(F)C6)nc4c3F)c12 (centres undefined) + Cc1nc(NC(=O)N2CCCC2C(N)=O)sc1-c1ccnc(C(C)(C)C(F)(F)F)c1"
  Target desc: "K98450-129-R-PDC multicell spheroids, viability"
  Recorded number: 108
- Compound: "Cn1ncc(Cl)c1-c1cc(C(=O)NC(CN)Cc2cccc(F)c2)sc1Cl (centres undefined) + Cc1nc(NC(=O)N2CCCC2C(N)=O)sc1-c1ccnc(C(C)(C)C(F)(F)F)c1"
  Target desc: "K98450-129-R-PDC multicell spheroids, viability"
  Recorded number: 97.8
- Compound: "C[C@@H](NC(=O)c1ncnc(N)c1Cl)c1ncc(C(=O)Nc2cc(C(F)(F)F)c(Cl)cn2)s1 + COc1c(OCCCN2CCOCC2)ccc2c3n(c(=NC(=O)c4cnc(N)nc4)nc12)CCN3"
  Target desc: "K98450-129-R-PDC multicell spheroids, viability"
  Recorded number: 83.5
- Compound: "Cn1ncc(Cl)c1-c1cc(C(=O)NC(CN)Cc2cccc(F)c2)sc1Cl (centres undefined) + CC(Nc1ccc2c(c1)OCCn1cc(N3C(=O)OCC3C(F)F)nc1-2)C(N)=O"
  Target desc: "K98450-129-R-PDC multicell spheroids, viability"
  Recorded number: 109
- Compound: "CC1(C)CCC(CN2CCN(c3ccc(C(=O)NS(=O)(=O)c4ccc(NCC5CCOCC5)c([N+](=O)[O-])c4)c(Oc4cnc5[nH]ccc5c4)c3)CC2)=C(c2ccc(Cl)cc2)C1 + CC(Nc1ccc2c(c1)OCCn1cc(N3C(=O)OCC3C(F)F)nc1-2)C(N)=O"
  Target desc: "K98450-129-R-PDC multicell spheroids, viability"
  Recorded number: 106
- Compound: "CC(C)NCC(C(=O)N1CCN(c2ncnc3c2C(C)CC3O)CC1)c1ccc(Cl)cc1 (centres undefined) + COc1c(OCCCN2CCOCC2)ccc2c3n(c(=NC(=O)c4cnc(N)nc4)nc12)CCN3"
  Target desc: "K98450-129-R-PDC multicell spheroids, viability"
  Recorded number: 94

Here are 5 compounds. What values of viability, T/C were reported for them?
1. C[C@@H](NC(=O)c1ncnc(N)c1Cl)c1ncc(C(=O)Nc2cc(C(F)(F)F)c(Cl)cn2)s1 + Cc1nc(NC(=O)N2CCCC2C(N)=O)sc1-c1ccnc(C(C)(C)C(F)(F)F)c1
2. CC(C)NCC(C(=O)N1CCN(c2ncnc3c2C(C)CC3O)CC1)c1ccc(Cl)cc1 (centres undefined) + CC(Nc1ncnc2nc[nH]c12)c1cc2cccc(Cl)c2c(=O)n1-c1ccccc1
3. CCN1CCN(Cc2ccc(Nc3ncc(F)c(-c4cc(F)c5nc(C)n(C(C)C)c5c4)n3)nc2)CC1 + CC(Nc1ccc2c(c1)OCCn1cc(N3C(=O)OCC3C(F)F)nc1-2)C(N)=O
4. CC(C)NCC(C(=O)N1CCN(c2ncnc3c2C(C)CC3O)CC1)c1ccc(Cl)cc1 (centres undefined) + CC(Nc1ccc2c(c1)OCCn1cc(N3C(=O)OCC3C(F)F)nc1-2)C(N)=O
5. Cn1ncnc1[C@H]1c2n[nH]c(=O)c3cc(F)cc(c23)N[C@@H]1c1ccc(F)cc1 + CC(Nc1ccc2c(c1)OCCn1cc(N3C(=O)OCC3C(F)F)nc1-2)C(N)=O

Reply |
1. 104
2. 98.2
3. 93.8
4. 109
5. 98.5
